Run description: NCI Yeast Anticancer Drug Screen. Data for the sgs1 mgt1 strain (AID 161);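 also: 0% = growth of cultures given vehicle only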
Settings: S. cerevisiae sgs1 mgt1 strain, at 50.0 µM, hits give high values
Compounds without any hit were thinned out: in the full panel of roughly 79,000, 15% have a hit. Active and inactive are the calls of the source. Rule as the data show it: active = growth inhibition above about 70%; inactive = the rest.
Measure name: growth inhibition

compound="O=C(OCC(O)C1OC(c2ccccc2)OC(COC(=O)c2ccccc2)C1O)c1ccccc1 (configuration not stated)" measure_name="growth inhibition" measurement="13.6% (inactive)"
compound=O=[N+]([O-])c1ccc(S(=O)(=O)NN=C2CCCCC2)cc1 measure_name="growth inhibition" measurement="8.1% (inactive)"
compound=C[N+](C)=c1ccc2nc3c(cc(Nc4ccccc4)c4ccccc43)oc-2c1 measure_name="growth inhibition" measurement="30.1% (inactive)"
compound=CN(C)/N=C/c1ccccc1O measure_name="growth inhibition" measurement="-16.9% (inactive)"
compound=O=C(O)/C=C/c1ccc2c(c1)CCC2 measure_name="growth inhibition" measurement="48.4% (inactive)"
compound=CC(=O)Nc1ccc(NC(C)=O)c2c1C(=O)c1ccccc1C2=O measure_name="growth inhibition" measurement="-10.3% (inactive)"
compound=O=C(O)C(Cc1ccccc1)C(=O)O measure_name="growth inhibition" measurement="-27.7% (inactive)"
compound="CCN(CC)CCCC(C)Nc1ccnc(/C=C/c2ccc(Cl)cc2)c1 (configuration not stated)" measure_name="growth inhibition" measurement="-16.1% (inactive)"
compound="CC(O)COc1ccc(-c2ccccc2)cc1 (configuration not stated)" measure_name="growth inhibition" measurement="33% (inactive)"
compound="COc1nc(N)nc2c1ncn2C1OC(CO)CC1O (configuration not stated)" measure_name="growth inhibition" measurement="-3.5% (inactive)"
compound=COC(=O)c1[nH]c(=O)c(C#N)c(C(=O)OC)c1C(=O)c1ccccc1 measure_name="growth inhibition" measurement="10.5% (inactive)"
compound=Clc1ccc(-c2nnc(-c3cccc4ccccc34)o2)cc1 measure_name="growth inhibition" measurement="-29.4% (inactive)"
